- test: Plasma PK, MAD
- Assay type: in vivo, human
- study-conditions: both, human, plasma, oral, 15 mg, T max, median (range), MAD 15 mg b.i.d., day 1
measured-metric: Tmax (h)
Write the answer as a number in h, unit excluded.

Give reported Tmax value for CC(C)(C(=O)N1CCOc2c(C#N)cncc2C1)C(F)F [SAR443820]
1

* * *

- system-tested: RIPK1 (Homo sapiens, UniProt Q13546)
- test: In vitro inhibition of RIPK1 activity in human PBMCs
- Type: cell-based
- Sequence (Q13546 whole entry): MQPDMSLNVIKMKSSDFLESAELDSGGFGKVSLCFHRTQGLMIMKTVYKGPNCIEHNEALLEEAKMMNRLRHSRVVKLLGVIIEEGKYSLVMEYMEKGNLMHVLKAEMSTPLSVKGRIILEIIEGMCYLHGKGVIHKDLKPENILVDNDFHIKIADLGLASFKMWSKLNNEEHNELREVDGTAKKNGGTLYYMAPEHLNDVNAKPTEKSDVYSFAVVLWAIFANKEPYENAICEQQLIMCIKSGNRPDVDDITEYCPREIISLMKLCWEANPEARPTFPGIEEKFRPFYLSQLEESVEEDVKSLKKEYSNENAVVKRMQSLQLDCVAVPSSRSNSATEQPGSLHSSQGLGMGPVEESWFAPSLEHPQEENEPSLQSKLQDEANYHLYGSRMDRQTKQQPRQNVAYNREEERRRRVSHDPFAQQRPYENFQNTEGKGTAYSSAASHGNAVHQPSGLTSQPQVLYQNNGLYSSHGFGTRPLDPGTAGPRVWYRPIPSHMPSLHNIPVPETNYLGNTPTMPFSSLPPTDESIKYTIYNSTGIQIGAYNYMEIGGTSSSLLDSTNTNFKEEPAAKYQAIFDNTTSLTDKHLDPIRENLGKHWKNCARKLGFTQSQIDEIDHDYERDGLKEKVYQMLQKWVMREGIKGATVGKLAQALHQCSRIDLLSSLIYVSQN
measured-metric: IC50 (nM)
All answers are understood in nM, so give the number only.

Write down IC50 measured for item CC(C)(C(=O)N1CCOc2c(C#N)cncc2C1)C(F)F [SAR443820]
3.16

* * *

- test: Plasma PK, PK‐CSF
- Assay type: in vivo, human
- study-conditions: both, human, plasma, oral, 10 mg
measured-metric: Vd/F (L)
# number only, unit L dropped from output

Given the compound CC(C)(C(=O)N1CCOc2c(C#N)cncc2C1)C(F)F [SAR443820] , write its reported Vd/F.
83.6

* * *

- system-tested: RIPK1 (Homo sapiens)
- test: In vitro inhibition of RIPK1 activity in iPSC‐derived microglia
- Type: cell-based
- Sequence (Q13546 whole entry, species assumed): as the sequence (Q13546 whole entry) above
measured-metric: IC50 (nM)
Field format: number, assumed nM, no unit text.

Read off the recorded IC50 for CC(C)(C(=O)N1CCOc2c(C#N)cncc2C1)C(F)F [SAR443820]
1.6

* * *

- test: Plasma PK, SAD
- Assay type: in vivo, human
- study-conditions: both, human, plasma, oral, 40 mg
measured-metric: half-life (h)
Provide the reading as a plain figure in h.

Please look at this compound and report its half-life: CC(C)(C(=O)N1CCOc2c(C#N)cncc2C1)C(F)F
6.29

* * *

- test: Plasma PK, MAD
- Type: in vivo, human
- study-conditions: both, human, plasma, oral, 10 mg, C max, geometric mean (%CV), MAD 10 mg q.d., day 14
measured-metric: Cmax (ng/mL)
// units = ng/mL; emit number, no label

Report measured Cmax; entry is CC(C)(C(=O)N1CCOc2c(C#N)cncc2C1)C(F)F
158

* * *

- test: Plasma PK, SAD
- Type: in vivo, human
- study-conditions: both, human, plasma, oral, 10 mg
measured-metric: AUC(0-t)
// return the numeric value with its unit appended

Retrieve AUC(0-t) measured for CC(C)(C(=O)N1CCOc2c(C#N)cncc2C1)C(F)F and print it.
1120 ng·h/mL

* * *

- test: Plasma PK, SAD
- Format: in vivo, human
- study-conditions: both, human, plasma, oral, 10 mg
measured-metric: Vd/F (L)
Give your result in L as a bare value.

Identify the reported Vd/F for the following entry. CC(C)(C(=O)N1CCOc2c(C#N)cncc2C1)C(F)F [SAR443820]
98.4

* * *

- test: Plasma PK, SAD
- Type: in vivo, human
- study-conditions: both, human, plasma, oral, 20 mg
measured-metric: half-life (h)
Write the answer as a number in h, unit excluded.

Supply reported half-life belonging to this compound: CC(C)(C(=O)N1CCOc2c(C#N)cncc2C1)C(F)F [SAR443820]
7.48

* * *

- test: Plasma PK, SAD
- Type: in vivo, human
- study-conditions: both, human, plasma, oral, 20 mg
measured-metric: Cmax (µg/mL)
Respond with the bare value in µg/mL.

State, in one line, measured Cmax of CC(C)(C(=O)N1CCOc2c(C#N)cncc2C1)C(F)F [SAR443820]
0.241

* * *

- test: Plasma PK, SAD
- Type: in vivo, human
- study-conditions: both, human, plasma, oral, 20 mg
measured-metric: Tmax (h)
# unit: h | format: bare number

Please report Tmax for the following compound: CC(C)(C(=O)N1CCOc2c(C#N)cncc2C1)C(F)F
1.5

* * *

- test: Plasma PK, MAD
- Format: in vivo, human
- study-conditions: both, human, plasma, oral, 20 mg, T max, median (range), MAD 20 mg b.i.d., day 14
measured-metric: Tmax (h)
Hi! Could you send only the number? It should be in h, unit omitted.

Assign Tmax to the following record: CC(C)(C(=O)N1CCOc2c(C#N)cncc2C1)C(F)F
1

* * *

- test: Plasma PK, MAD
- Format: in vivo, human
- study-conditions: both, human, plasma, oral, 20 mg, T 1/2z, geometric mean (%CV), MAD 20 mg q.d., day 14
measured-metric: half-life (min)
The answer is to be given in min; state only the numeric part.

Given CC(C)(C(=O)N1CCOc2c(C#N)cncc2C1)C(F)F [SAR443820] , respond with its half-life.
512

* * *

- test: Plasma PK, MAD
- Format: in vivo, human
- study-conditions: both, human, plasma, oral, 20 mg, T 1/2z, geometric mean (%CV), MAD 20 mg b.i.d., day 14
measured-metric: half-life (h)
Report the figure in h without appending any unit label.

Consider the molecule CC(C)(C(=O)N1CCOc2c(C#N)cncc2C1)C(F)F [SAR443820] and give its recorded half-life.
7.37

* * *

- test: Plasma PK, SAD
- Assay type: in vivo, human
- study-conditions: both, human, plasma, oral, 30 mg
measured-metric: Tmax (h)
Answer with a number only, understood to be in h.

State its Tmax for this compound: CC(C)(C(=O)N1CCOc2c(C#N)cncc2C1)C(F)F
1

* * *

- test: Plasma PK, MAD
- Type: in vivo, human
- study-conditions: both, human, plasma, oral, 10 mg, T max, median (range), MAD 10 mg q.d., day 14
measured-metric: Tmax (h)
The answer is to be given in h; state only the numeric part.

Check the records and state Tmax for CC(C)(C(=O)N1CCOc2c(C#N)cncc2C1)C(F)F [SAR443820]
1

* * *

- test: Plasma PK, SAD
- Assay type: in vivo, human
- study-conditions: both, human, plasma, oral
measured-metric: half-life

Input CC(C)(C(=O)N1CCOc2c(C#N)cncc2C1)C(F)F , output reported half-life.
5.7 to 8 h

* * *

- test: Plasma PK, MAD
- Type: in vivo, human
- study-conditions: both, human, plasma, oral, 15 mg, T max, median (range), MAD 15 mg b.i.d., day 14
measured-metric: Tmax

Using known records, supply Tmax for CC(C)(C(=O)N1CCOc2c(C#N)cncc2C1)C(F)F
1 h

* * *

- test: Plasma PK, SAD
- Type: in vivo, human
- study-conditions: both, human, plasma, oral, 20 mg
measured-metric: Vd/F (L)
Just the number in L, nothing appended.

Report measured Vd/F; entry is CC(C)(C(=O)N1CCOc2c(C#N)cncc2C1)C(F)F [SAR443820]
89.4

* * *

- test: Plasma PK, MAD
- Assay type: in vivo, human
- study-conditions: both, human, plasma, oral, 10 mg, T 1/2z, geometric mean (%CV), MAD 10 mg q.d., day 14
measured-metric: half-life (h)
Give the value, in units of h, as a plain number.

Entry CC(C)(C(=O)N1CCOc2c(C#N)cncc2C1)C(F)F needs its half-life filled in; supply it.
8.87

* * *

- test: Plasma PK, SAD
- Assay type: in vivo, human
- study-conditions: both, human, plasma, oral, 30 mg
measured-metric: Vd/F
Give me the value, and tack the unit on after it.

Indicate the recorded Vd/F value for this compound: CC(C)(C(=O)N1CCOc2c(C#N)cncc2C1)C(F)F
101 L

* * *

- test: Plasma PK, SAD
- Assay type: in vivo, human
- study-conditions: both, human, plasma, oral, 40 mg
measured-metric: Tmax (h)
State just the number; it will be interpreted in h.

Name the recorded Tmax of the compound listed here: CC(C)(C(=O)N1CCOc2c(C#N)cncc2C1)C(F)F
1.5

* * *

- test: Plasma PK, SAD
- Assay type: in vivo, human
- study-conditions: both, human, plasma, oral, 10 mg
measured-metric: half-life (h)
API: value field is a number in h; no unit string.

# return recorded half-life for input CC(C)(C(=O)N1CCOc2c(C#N)cncc2C1)C(F)F
7.97
